METHOD_DESCRIPTION: Visual assessment of thioglycolipid aggregation and hydrogel formation
Type: physicochemical
Set-up: key: G = gel; F = fibrous aggregation; C = clear solution; O = cloudy solution
MEASUREMENT_CONDITIONS: thioglycolipid concentration 1 wt %, room temperature
READOUT_KIND: Visual assessment of aggregation and gelation

INSERT INTO results (smiles_record, result_value) VALUES
  ('CCCCCCCCS[C@@H]1O[C@H](CO)[C@@H](O[C@@H]2O[C@H](CO)[C@@H](O)[C@H](O)[C@H]2O)[C@H](O)[C@H]1O', 'C'),
  ('CCCCCCCCCCS[C@@H]1O[C@H](CO)[C@@H](O[C@@H]2O[C@H](CO)[C@H](O)[C@H](O)[C@H]2O)[C@H](O)[C@H]1O', 'G + C');

All values here come from patent US20240181136A1.
